Target or test system: T1, human MHC class II allotype HLA-DRB1*1101 (human)
T1 construct: Source and construct of the MHC protein in the assay are not described
Procedure details: competitive MHC class II binding assay; competitor control peptide influenza haemagglutinin 307-319;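 further: each test peptide was scored on how well it displaces the known control binder from each human MHC class II allotype studied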
Measurement type: ratio of its own IC50 to that of the control peptide

{"columns": ["Binder", "Reading"],
 "data": [
  ["KPFQLEAVFEANQNT (Synthetic peptide, 88.7% purity) [HDM21]", 11.7],
  ["EAVFEANQNTKTAK (Synthetic peptide, 90.3% purity) [HDM22A]", 80],
  ["TAIFQDTVRAEMTK (Synthetic peptide, 79.1% purity) [HDM48]", 13.6],
  ["REALAQTHSAIAVI (Synthetic peptide, 69.6% purity) [HDM09A]", 21.1],
  ["RGLKQMKRVGDAN (Synthetic peptide, 84.0% purity) [HDM35]", 1.26],
  ["LDMRNIQVRGLKQ (Synthetic peptide, 70.3% purity) [HDM33]", 41.5],
  ["RGKPFQLEAVFEANQNT (Synthetic peptide, 82.6% purity) [HDM21B]", 4.1],
  ["KPFQLEAVFEANQNTK (Synthetic peptide, 90.1% purity) [HDM21A]", 10.3],
  ["RYVAREQSCRRPN (Synthetic peptide, 79.7% purity) [HDM06]", 30.4],
  ["RNIQVRGLKQMKRVG (Synthetic peptide, 74.7% purity) [HDM34]", 3.38],
  ["VSMEYDLAYKLGDLH (Synthetic peptide, 66.9% purity) [HDM40A]", 6]
]}
